Taken from ChEMBL document CHEMBL1201862.

target.desc: High affinity choline transporter 1 (Homo sapiens, UniProt Q9GZV3)
Sequence (Q9GZV3 whole entry): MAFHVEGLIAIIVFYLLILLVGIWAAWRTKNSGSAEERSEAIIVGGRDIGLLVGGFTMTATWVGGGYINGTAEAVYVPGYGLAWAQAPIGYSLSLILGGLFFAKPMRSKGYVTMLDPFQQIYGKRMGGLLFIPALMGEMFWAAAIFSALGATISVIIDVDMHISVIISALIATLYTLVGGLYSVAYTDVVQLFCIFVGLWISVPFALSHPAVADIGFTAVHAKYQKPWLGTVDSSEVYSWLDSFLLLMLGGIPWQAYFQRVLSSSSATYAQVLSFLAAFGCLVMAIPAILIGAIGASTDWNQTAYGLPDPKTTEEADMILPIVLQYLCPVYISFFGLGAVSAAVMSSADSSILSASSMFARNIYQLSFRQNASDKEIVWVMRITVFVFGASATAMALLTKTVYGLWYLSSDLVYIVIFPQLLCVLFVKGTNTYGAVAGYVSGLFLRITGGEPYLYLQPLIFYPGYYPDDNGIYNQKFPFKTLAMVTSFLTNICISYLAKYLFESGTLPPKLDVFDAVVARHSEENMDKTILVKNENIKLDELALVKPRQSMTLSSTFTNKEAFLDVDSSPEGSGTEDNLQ
procedure.text: human choline transporter blockers, potency – cell-based, 5-point CRC, membrane potential dye, dose response (AID 504840)
Assay type: functional
Calls of active or inactive are those of the source. How the calls were made is not given here.
property.name: IC50

Exam item: // IC50 lookup, key: `COc1ccc(C(=O)NCc2nc(C)c(C)s2)cc1OC1CCN(C(C)C)CC1`
Marked response: 1.32 µM (active)

Exam item: // IC50 lookup, key: `Cc1cc(CN(C)C(=O)c2cc(COc3ccc(F)cc3Cl)on2)n[nH]1`
Marked response: 9.89 µM (active)

Exam item: // IC50 lookup, key: Cc1ccc(-c2nnc(OCC3CCCO3)c3ccccc23)cc1 (stereo not given)
Marked response: 14.5 µM (active)

Exam item: // IC50 lookup, key: `O=C(N/N=C/c1ccsc1)c1c[nH]c2ccccc12`
Marked response: 3.8 µM (active)

Exam item: // IC50 lookup, key: CC1CCN(S(=O)(=O)c2ccc3c(c2)N(CC(=O)NCCCN2CCCCC2C)C(=O)CS3)CC1 (stereo not given)
Marked response: 13 µM (active)
